Measured values drawn from the supplement of paper PMC11196671 for this set.

Test: PET hydrolysis product formed (TPA+MHET+BHET, UV-Vis) per mg enzyme (mmol/mg enzyme); higher = more PET depolymerisation activity; extreme values may be limits of the assay
Settings: PET substrate: aFilm; 60 °C; pH 6.5; 24 h
Rule: PET hydrolysis product formed of 0.04 or more gives Satisfied; anything lower gives Not satisfied.

Residue Sequence	Label Class
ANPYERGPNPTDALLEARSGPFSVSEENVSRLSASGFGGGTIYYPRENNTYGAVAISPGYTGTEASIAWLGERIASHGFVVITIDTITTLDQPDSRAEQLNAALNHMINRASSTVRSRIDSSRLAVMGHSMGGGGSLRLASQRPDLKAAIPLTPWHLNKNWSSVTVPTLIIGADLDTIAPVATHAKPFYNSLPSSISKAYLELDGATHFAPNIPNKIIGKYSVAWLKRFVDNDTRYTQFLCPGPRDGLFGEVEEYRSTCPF [TfCut2]	Not satisfied
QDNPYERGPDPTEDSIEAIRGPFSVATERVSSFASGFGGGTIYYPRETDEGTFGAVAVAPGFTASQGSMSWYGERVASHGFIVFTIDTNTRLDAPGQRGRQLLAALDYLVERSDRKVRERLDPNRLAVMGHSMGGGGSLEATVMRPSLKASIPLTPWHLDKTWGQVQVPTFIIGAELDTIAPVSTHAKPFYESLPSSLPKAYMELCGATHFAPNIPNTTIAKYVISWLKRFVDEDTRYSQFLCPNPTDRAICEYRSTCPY [Cut190*SS]	Not satisfied
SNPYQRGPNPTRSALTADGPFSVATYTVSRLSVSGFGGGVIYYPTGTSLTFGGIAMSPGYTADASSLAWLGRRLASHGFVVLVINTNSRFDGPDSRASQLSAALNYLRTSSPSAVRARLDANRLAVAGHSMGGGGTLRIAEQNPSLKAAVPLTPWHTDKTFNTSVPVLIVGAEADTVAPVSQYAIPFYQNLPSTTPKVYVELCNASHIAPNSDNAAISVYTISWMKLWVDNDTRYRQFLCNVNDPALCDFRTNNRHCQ [LCC-A2]	Satisfied
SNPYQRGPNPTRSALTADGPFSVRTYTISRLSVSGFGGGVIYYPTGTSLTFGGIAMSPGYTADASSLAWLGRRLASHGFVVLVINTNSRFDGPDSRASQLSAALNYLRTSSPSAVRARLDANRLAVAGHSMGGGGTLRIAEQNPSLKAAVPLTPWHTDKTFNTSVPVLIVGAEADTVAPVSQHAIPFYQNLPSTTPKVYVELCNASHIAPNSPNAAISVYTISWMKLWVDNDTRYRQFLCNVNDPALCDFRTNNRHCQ [LCC-ICCG RIP]	Satisfied
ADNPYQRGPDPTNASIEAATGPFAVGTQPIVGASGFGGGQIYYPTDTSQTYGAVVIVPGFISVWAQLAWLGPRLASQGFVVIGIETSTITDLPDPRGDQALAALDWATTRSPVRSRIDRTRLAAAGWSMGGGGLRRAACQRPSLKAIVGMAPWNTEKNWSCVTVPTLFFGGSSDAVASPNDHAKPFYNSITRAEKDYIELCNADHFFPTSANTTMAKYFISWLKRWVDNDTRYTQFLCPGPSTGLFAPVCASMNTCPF [CaPETaseM9]	Satisfied
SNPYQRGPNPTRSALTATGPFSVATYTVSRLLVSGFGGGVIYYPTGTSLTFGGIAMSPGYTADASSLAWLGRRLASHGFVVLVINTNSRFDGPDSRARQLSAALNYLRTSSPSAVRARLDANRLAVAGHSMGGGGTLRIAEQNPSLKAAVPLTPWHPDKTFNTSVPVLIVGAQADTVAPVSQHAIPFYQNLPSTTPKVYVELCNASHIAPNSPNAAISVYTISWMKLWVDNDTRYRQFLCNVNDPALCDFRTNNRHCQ [LCC-ICCG I6M]	Satisfied
